Assay: method code SF, from Hansch, C. & Leo, A. (1987). Log P database [Dataset]. Pomona College Medicinal Chemistry Project.
Param threshold (1) applies to logP; output yes when value >= threshold, no when value < threshold.

Worked examples, 5 compounds total:
| compound | group |
| --- | --- |
| O=c1[nH]cc(I)c(=O)[nH]1 | no |
| CC=CC(=O)Nc1ccc(Cl)c(Cl)c1 | yes |
| COC(=O)c1cccc(NC(C)=O)c1 | yes |
| FC(F)F | no |
| CCOC(=O)CON=Cc1ccc(OCCOC(=O)c2cc(OC)c(OC)c(OC)c2)c(OC)c1 | yes |

In: Could you tell me if the measured logP of O=C(O)COc1ccc(Cl)c(Cl)c1 reaches 1 or more?
Out: yes

In: Could you tell me if the measured logP of CCCc1ccncc1 reaches 1 or more?
Out: yes

In: Could you tell me if the measured logP of CO[C@H]1C=CO[C@@]2(C)Oc3c(C)c(O)c4c(O)c(c(C=NN5CCNCC5)c(O)c4c3C2=O)NC(=O)C(C)=CC=C[C@H](C)[C@H](O)[C@@H](C)[C@@H](O)[C@@H](C)[C@H](OC(C)=O)[C@@H]1C reaches 1 or more?
Out: yes

In: Could you tell me if the measured logP of Oc1ccccc1-c1ccccc1 reaches 1 or more?
Out: yes

In: Could you tell me if the measured logP of Cc1ccc2cccnc2c1 reaches 1 or more?
Out: yes

In: Could you tell me if the measured logP of OCC(O)COc1ccccc1 (configuration not stated) reaches 1 or more?
Out: no

----------
Assignment: determine reported logP for the given compounds.
Experiment: method code SF, from Hansch, C. & Leo, A. (1987). Log P database [Dataset]. Pomona College Medicinal Chemistry Project.
Numbers only.

The following compounds have reported results that may help.
| compound | logP |
| --- | --- |
| CC(=O)Nc1ccccc1C(F)(F)F | 1.11 |
| CCCCOC1NC(=O)NC(=O)C1=[N+]=[N-] (configuration not stated) | -0.55 |
| CCOC(=O)C(=Cc1ccc(F)cc1)C(=O)OCC | 3.1 |

Consider the following items and state reported logP for each.
1. COc1ccc(C(N)=O)cc1
2. CC#CC
3. CCCCC1OC(=O)c2ccccc21 (configuration not stated)

Out:
[0.86, 1.46, 2.8]

In: Which logP reading was recorded for the compound Fc1c(F)c(F)c(F)c(F)c1F ?
Out: 2.22

----------
Assay: method code SF, from Hansch, C. & Leo, A. (1987). Log P database [Dataset]. Pomona College Medicinal Chemistry Project.
Settings: pH 13.0
experimentalEndpoint: logD
Answers are plain numbers.

| compound | logD |
| --- | --- |
| CC1(C)N=C(N)N=C(N)N1c1ccc(OCC(=O)N2CCOCC2)cc1 | -1.18 |
| CCN(CC)CC(O)c1ccccc1 (centres undefined) | 2.02 |
| CC(=O)c1cccc(N2C(N)=NC(N)=NC2(C)C)c1 | -0.22 |
| COc1cccc(Cc2cnc(N)nc2N)c1OC | 1.62 |
| CC(=O)Nc1cccc(OCc2cccc(N3C(N)=NC(N)=NC3(C)C)c2)c1 | 1.15 |
| COc1ccc(OC)c(Cc2cnc3nc(N)nc(N)c3c2C)c1 | 2.13 |

Consider the following items and state reported logD for each.
1. CC1(C)N=C(N)N=C(N)N1c1ccc(N)cc1
2. COC(OC)(OC)c1ccccc1
3. CC(=O)Nc1cccc(OCc2cccc(/N=C(\N)N=C(N)N)c2)c1

Out:
-0.59
2.27
1.82
